Procedure Details: Stability of peptides in simulated gastric fluid (pH 1.5; HCl, NaCl and Pepsin)
Assay type: in vitro ADME
Test Conditions: simulated gastric fluid, 24 h, 2 μM, pH 1.5
Where a SMILES comes first, the peptide text is derived from it. [ ]: non-standard residue; d: D form. ξ: configuration not given here. Arg(NO2) = N=C(NCCC[C@H](N)C(=O)O)N[N+](=O)[O-]; ξαMePhe(2,6-F2) = CC(N)(Cc1c(F)cccc1F)C(=O)O; ξαMePhe(2-F) = CC(N)(Cc1ccccc1F)C(=O)O; hCit = NC(=O)NCCCC[C@H](N)C(=O)O; Cit = NC(=O)NCCC[C@H](N)C(=O)O; Nle = CCCC[C@H](N)C(=O)O; Orn = NCCC[C@H](N)C(=O)O; Ac5c = NC1(C(=O)O)CCCC1; Aib = CC(C)(N)C(=O)O
Listed below: % degradation of peptides in 24 h when incubated with simulated gastric fluid values for each entry.

1. CCCC[C@H](NC(=O)C(C)(Cc1ccccc1F)NC(=O)[C@H](CCC(N)=O)NC(=O)[C@@H](NC(=O)[C@H](CCC(=O)O)NC(=O)C(C)(C)NC(=O)[C@@H](NC(=O)C1(N)CCCC1)C(C)C)[C@@H](C)CC)C(=O)N[C@@H](Cc1c[nH]cn1)C(=O)N[C@@H](CCC(N)=O)C(=O)N[C@@H](CCCCNC(N)=O)C(=O)NC(C)(C)C(=O)N[C@@H](CCCNC(=N)N[N+](=O)[O-])C(=O)NC(C)(Cc1ccccc1F)C(N)=O (some centres unmarked) [Seq. ID. 460] (H-[Ac5c]V[Aib]EIQ[ξαMePhe(2-F)][Nle]HQ[hCit][Aib][Arg(NO2)][ξαMePhe(2-F)]-NH2) :: 14%

We now examine a further compound.
Any idea what its % degradation of peptides in 24 h when incubated with simulated gastric fluid is? The compound is CCCC[C@H](NC(=O)C(C)(Cc1ccccc1F)NC(=O)[C@H](CCC(N)=O)NC(=O)[C@@H](NC(=O)[C@H](CCC(=O)O)NC(=O)C(C)(C)NC(=O)[C@@H](NC(=O)C(C)(C)N)C(C)C)[C@@H](C)CC)C(=O)N[C@@H](Cc1c[nH]cn1)C(=O)N[C@@H](CCC(N)=O)C(=O)N[C@@H](CCCN)C(=O)NC(C)(C)C(=O)N[C@@H](CCCNC(N)=O)C(=O)NC(C)(Cc1c(F)cccc1F)C(N)=O (some centres unmarked) [Seq. ID. 290] (H-[Aib]V[Aib]EIQ[ξαMePhe(2-F)][Nle]HQ[Orn][Aib][Cit][ξαMePhe(2,6-F2)]-NH2)
100%

----------
Procedure Details: Stability of peptides in simulated gastric fluid (pH 1.5; HCl, NaCl and Pepsin)
Assay type: in vitro ADME
Test Conditions: simulated gi fluid, pH 1.5
Where a SMILES comes first, the peptide text is derived from it. [ ]: non-standard residue; d: D form. ξ: configuration not given here. ξBip(2'-Et-4'-OMe) = CCc1cc(OC)ccc1-c1ccc(CC(N)C(=O)O)cc1; ξαMePhe(2-F) = CC(N)(Cc1ccccc1F)C(=O)O; hArg = N=C(N)NCCCC[C@H](N)C(=O)O; Nle = CCCC[C@H](N)C(=O)O; Ac5c = NC1(C(=O)O)CCCC1; Aib = CC(C)(N)C(=O)O
Reported Metric: half-life (t1/2) in simulated gastric fluid

1. CCc1cc(OC)ccc1-c1ccc(CC(NC(=O)[C@H](CCCCN)NC(=O)[C@H](C)NC(=O)[C@H](CCCCNC(=N)N)NC(=O)[C@H](CCC(N)=O)NC(=O)[C@H](Cc2c[nH]cn2)NC(=O)[C@H](CCSC)NC(=O)[C@H](CC(C)C)NC(=O)[C@H](CCC(N)=O)NC(=O)[C@@H](NC(=O)[C@H](CCC(=O)O)NC(=O)C(C)(C)NC(=O)[C@@H](NC(=O)C2(N)CCCC2)C(C)C)[C@@H](C)CC)C(N)=O)cc1 (some centres unmarked) [Seq. ID. 650] (H-[Ac5c]V[Aib]EIQLMHQ[hArg]AK[ξBip(2'-Et-4'-OMe)]-NH2) :: (8) h
2. CCCC[C@H](NC(=O)C(C)(Cc1ccccc1F)NC(=O)[C@H](CCC(N)=O)NC(=O)[C@@H](NC(=O)[C@H](CCC(=O)O)NC(=O)C(C)(C)NC(=O)[C@@H](NC(=O)C(C)(C)N)C(C)C)[C@@H](C)CC)C(=O)N[C@@H](Cc1c[nH]cn1)C(=O)N[C@@H](CCC(N)=O)C(=O)N[C@@H](CCCCNC(=N)N)C(=O)N[C@@H](C)C(=O)NC(C)(C)C(=O)NC(C)(Cc1ccccc1F)C(N)=O (some centres unmarked) [Seq. ID. 161] (H-[Aib]V[Aib]EIQ[ξαMePhe(2-F)][Nle]HQ[hArg]A[Aib][ξαMePhe(2-F)]-NH2) :: (8) h
